study.system: Structural capsid protein (Human immunodeficiency virus 1, UniProt Q76129)
Sequence (Q76129 whole entry): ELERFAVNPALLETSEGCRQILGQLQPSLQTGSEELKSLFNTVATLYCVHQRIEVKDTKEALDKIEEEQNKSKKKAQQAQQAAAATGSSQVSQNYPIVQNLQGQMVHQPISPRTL
assay.details: Binding affinity to HIV1 NL4-3 hexameric capsid protein by surface plasmon resonance
A collection of compounds and their measured Kd

>>> print(df.to_string())
                                   compound                              study_system  reported_result
0  COc1ccc(N(C)C(=O)[C@H](Cc2ccccc2)NC(=O)c2cn(Cc3ccc4ccccc4c3)nn2)cc1  Structural capsid protein (Human immunodeficiency virus 1, UniProt Q76129)            11 µM

Proceeding to the next compound to report its Kd.
// sample COc1ccc(N(C)C(=O)[C@H](Cc2ccccc2)NC(=O)c2cn(C[S+]([O-])c3ccccc3)nn2)cc1 (some centres not stated) , its Kd was 93.3 µM
